// provenance: patent US6881740B1

# Test system: cultured cerebellar granule cells
# ASSAY METHOD TEXT: Veratridine induced toxicity in neuronal cultures (MTT assay)
# CONDITIONS USED: Mus musculus
REPORTED METRIC: EC50 (nM)
Give bare numbers, in nM.

OC(Cc1cc(N2CCCC2)nc(N2CCCC2)n1)c1cccc(OC(F)(F)F)c1 (stereo not shown) yielded EC50 of 1700

====

# TEST SYSTEM: NMDA/polyamine sites (polyamine-sensitive [3H]-ifenprodil binding, rat cerebral cortex membranes) (Rattus norvegicus, UniProt P35439+Q00960)
# Sequence (Q00960 27-1482, other chains not shown): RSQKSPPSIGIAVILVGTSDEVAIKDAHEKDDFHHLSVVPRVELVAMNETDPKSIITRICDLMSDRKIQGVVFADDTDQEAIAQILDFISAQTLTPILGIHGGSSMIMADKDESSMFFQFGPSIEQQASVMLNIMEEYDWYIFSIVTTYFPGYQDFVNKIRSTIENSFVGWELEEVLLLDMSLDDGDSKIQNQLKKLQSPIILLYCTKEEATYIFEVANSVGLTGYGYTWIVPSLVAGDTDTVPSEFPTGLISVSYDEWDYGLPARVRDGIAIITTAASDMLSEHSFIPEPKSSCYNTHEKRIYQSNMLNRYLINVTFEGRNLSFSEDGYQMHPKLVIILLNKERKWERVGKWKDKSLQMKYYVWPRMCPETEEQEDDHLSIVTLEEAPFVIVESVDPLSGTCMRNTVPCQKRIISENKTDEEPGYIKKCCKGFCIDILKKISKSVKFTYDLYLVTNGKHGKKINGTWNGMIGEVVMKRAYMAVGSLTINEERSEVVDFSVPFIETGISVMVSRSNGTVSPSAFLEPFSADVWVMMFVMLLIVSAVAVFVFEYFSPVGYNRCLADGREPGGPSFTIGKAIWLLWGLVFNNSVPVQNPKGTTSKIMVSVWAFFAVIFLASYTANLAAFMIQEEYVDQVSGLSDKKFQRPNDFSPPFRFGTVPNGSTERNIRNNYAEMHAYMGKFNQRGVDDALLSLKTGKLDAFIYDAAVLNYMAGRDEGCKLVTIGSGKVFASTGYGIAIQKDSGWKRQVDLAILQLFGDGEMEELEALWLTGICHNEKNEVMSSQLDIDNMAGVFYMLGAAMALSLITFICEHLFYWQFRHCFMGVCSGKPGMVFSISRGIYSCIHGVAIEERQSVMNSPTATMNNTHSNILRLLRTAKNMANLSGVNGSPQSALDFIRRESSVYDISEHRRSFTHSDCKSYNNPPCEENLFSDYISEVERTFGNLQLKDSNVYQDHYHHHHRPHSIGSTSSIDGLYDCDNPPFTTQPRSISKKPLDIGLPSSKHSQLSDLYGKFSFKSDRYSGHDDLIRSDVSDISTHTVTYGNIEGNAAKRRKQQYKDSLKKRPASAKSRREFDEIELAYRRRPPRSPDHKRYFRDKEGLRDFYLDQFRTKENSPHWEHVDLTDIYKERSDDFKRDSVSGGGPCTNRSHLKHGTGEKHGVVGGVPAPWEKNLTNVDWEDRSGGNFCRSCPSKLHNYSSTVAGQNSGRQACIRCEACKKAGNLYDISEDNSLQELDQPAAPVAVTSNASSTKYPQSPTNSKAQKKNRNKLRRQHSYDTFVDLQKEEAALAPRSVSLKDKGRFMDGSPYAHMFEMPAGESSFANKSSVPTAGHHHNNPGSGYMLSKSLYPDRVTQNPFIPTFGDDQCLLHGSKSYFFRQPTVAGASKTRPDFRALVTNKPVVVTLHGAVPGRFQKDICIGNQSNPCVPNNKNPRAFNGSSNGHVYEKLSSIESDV
# ASSAY METHOD TEXT: NMDA/polyamine site [3H]-ifenprodil binding assay
# CONDITIONS USED: [3H]-ifenprodil 4 nM, rat cerebral cortex homogenate, 2 h at 4° C., 3PPP 100 μM to block sigma sites
REPORTED METRIC: IC50 (µM)
Answers are plain numbers, in µM.

OC(Cc1cc(N2CCCC2)nc(N2CCCC2)n1)c1cccc(OC(F)(F)F)c1 (stereo not shown) yielded IC50 of 4.33
